Kindly state IC50 for each of the entries shown.
Test system: A2780
protocolDescription: Cytotoxicity against human A2780 cells
Type: functional, cell-based

Recorded results for 3 compounds are shown here.
COc1c(-c2coc3cc4c(cc3c2=O)C=CC(C)(C)O4)ccc2c1C=CC(C)(C)O2 : 20 µg/mL
CC(C)=CCc1c2c(c(O)c3c1O[C@H](c1ccccc1)[C@@H](O)C3=O)C=CC(C)(C)O2 : 25 µg/mL
COc1c(-c2coc3cc4c(cc3c2=O)CC(O)C(C)(C)O4)ccc2c1C=CC(C)(C)O2 (centres undefined) : 13 µg/mL

Ask | Which IC50 reading was recorded for the compound `CC1(C)C=Cc2c(c3c(c4c2O[C@H](c2ccccc2)CC4=O)OC(C)(C)C=C3)O1` ?
Reply | 33 µg/mL

---

Tested on: A2780
protocolDescription: Cytotoxicity against human A2780 cells
Format: functional, cell-based
Record form. Attribute: IC50. Fill in for each entry.
Numbers only, in µg/mL.

C=C(C)[C@H]1Cc2c(ccc3c2O[C@@H]2COc4cc(OC)c(OC)cc4[C@]2(O)C3=O)O1 [ROTENOLONE] : 0.5
CC1(C)C=Cc2c(c3c(c4c2O[C@H](c2ccccc2)[C@@H](O)C4=O)OC(C)(C)C=C3)O1 : 20

Would you kindly look at the next entry?
Ask | Give the reported IC50 for CC(C)=CCc1c(O)c2c(c3c1OC(C)(C)C=C3)O[C@H](c1ccccc1)[C@@H](O)C2=O [ISOMUNDULINOL] (system: A2780).
Reply | 18

---

Test system: A2780
protocolDescription: Cytotoxicity against human A2780 cells
Format: functional, cell-based
testReadout: IC50 (µg/mL)
One number for each entry, in µg/mL.

C=C[C@@]1(C)C[C@@H](OC(C)=O)[C@H](C(C)(C)O)C[C@@H]1C(=C)C : 17
COc1cc(OC)c2c(c1CC=C(C)C)O[C@H](c1ccccc1)CC2=O : 23
COc1cc2c(cc1OC)[C@]1(O)C(=O)c3ccc4c(c3O[C@@H]1CO2)C=CC(C)(C)O4 : 9.1

# evaluate next
Ask | Which IC50 reading was recorded for the compound `C=C(C)[C@H]1Cc2c(ccc3c2O[C@@H]2COc4cc(OC)c(OC)cc4[C@@H]2C3=O)O1` ?
Reply | 0.7
